Listed here are molecules together with their documented log10 EC50.
tested on: MCF7; assay: Cytotoxicity against human MCF7 cells assessed as growth inhibition after 72 hrs by SRB assay; format: functional; details: Homo sapiens, MCF7, 72 h; read-out: ED50 (the source's name)
Endpoint: log10 EC50 (log10 of the value in µg/mL)

Molecule	Reported Value
C[C@]12CC[C@H](O)C[C@@]1(O)CC[C@@H]1[C@@H]2CC[C@]2(C)[C@@H]([C@]3(O)COC(=O)C3)CC[C@]12O [ANTIAROTOXININ A]	1.18
CO[C@H]1[C@@H](O[C@H]2CC[C@]3(C=O)[C@H]4CC[C@]5(C)[C@@H](C6=CC(=O)OC6)CC[C@]5(O)[C@@H]4CC[C@]3(O)C2)O[C@H](C)[C@@H](O)[C@H]1O (stereo in doubt; 23) [STROPHATHOJAVOSIDE]	-1.62
C[C@H]1O[C@H](O[C@H]2CC[C@]3(C=O)[C@H]4C[C@@H](O)[C@]5(C)[C@@H](C6=CC(=O)OC6)CC[C@]5(O)[C@@H]4CC[C@]3(O)C2)[C@H](O)[C@H](O)[C@@H]1O [ANTIALLOSIDE]	-0.92
C[C@@H]1O[C@H](O[C@H]2CC[C@]3(C(=O)O)[C@H]4C[C@@H](O)[C@]5(C)[C@@H](C6=CC(=O)OC6)CC[C@]5(O)[C@@H]4CC[C@]3(O)C2)[C@H](O)[C@H](O)[C@H]1O [ANTIAROSIDE G]	1.24
C[C@@H]1O[C@H](O[C@H]2CC[C@]3(C)[C@H]4CC[C@]5(C)[C@@H](C6=CC(=O)OC6)CC[C@]5(O)[C@@H]4CC[C@]3(O)C2)[C@H](O)[C@H](O)[C@H]1O [PERIPLORHAMNOSIDE]	-1.74
C[C@@H]1O[C@H](O[C@@H]2CC[C@]3(C=O)[C@H]4CC[C@]5(C)[C@@H](C6=CC(=O)OC6)CC[C@]5(O)[C@@H]4CC[C@]3(O)C2)[C@H](O)[C@H](O)[C@H]1O [ANTIAROSIDE C]	0.15
CO[C@H]1[C@@H](O[C@H]2CC[C@]3(C=O)[C@H]4C[C@@H](O)[C@]5(C)[C@@H](C6=CC(=O)OC6)CC[C@]5(O)[C@@H]4CC[C@]3(O)C2)O[C@H](C)[C@@H](O)[C@@H]1O [TOXICARIOSIDE B]	-1.04
C[C@]12CC[C@H]3[C@@H](CC[C@@H]4C[C@@H](O)CC[C@@]43CO)[C@@]1(O)CC[C@@H]2C1=CC(=O)OC1	-0.68
C[C@@H]1O[C@H](O[C@H]2CC[C@]3(CO)[C@H]4CC[C@]5(C)[C@@H](C6=CC(=O)OC6)CC[C@]5(O)[C@@H]4CC[C@]3(O)C2)[C@H](O)[C@H](O)[C@H]1O	-1.92

Values compiled from ChEMBL document CHEMBL3120107.
